# protocol_details: Selectivity ratio of IC50 for PI3Kdelta to IC50 for PI3Kbeta
Ratio IC50 values, listed per item
No unit in the answer, please; the number alone is enough.

These recorded examples may help you get a feel for the data.
>>> assay_value("Cc1c(Cn2c(C)nn3c(=O)cc(N4CCOC(C)C4)nc23)cccc1C(F)(F)F (racemic)")
6
>>> assay_value("CSc1nn2c(=O)cc(-c3ccncc3)nc2n1Cc1cccc(Cl)c1Cl")
6
>>> assay_value("Cc1c(Cn2c(C)nn3c(=O)cc(N4CCOC(C)C4)nc23)cccc1C(F)(F)F (single isomer, unassigned; enantiomer 1)")
6
>>> assay_value("O=c1cc(N2CCOCC2)nc2n(Cc3cccc(Cl)c3Cl)c(C3CC3)nn12")
52
>>> assay_value("CSc1nn2c(=O)cc(N3CCOCC3)nc2n1Cc1cccc(C(F)(F)F)c1C")
6

Query: Param item = Cc1c(Cn2c(C3CC3)nn3c(=O)cc(N4CCOCC4)nc23)cccc1C(F)(F)F ; retrieve measured Ratio IC50.
Reply: 6

Query: Which Ratio IC50 value is on record for CSc1nn2c(=O)cc(N3CCOC(C)C3)nc2n1Cc1cccc(C(F)(F)F)c1C (configuration not stated) ?
Reply: 6

Query: Requested field: Ratio IC50. Item: CSc1nn2c(=O)cc(N3CCOCC3)nc2n1Cc1cccc(Cl)c1Cl
Reply: 19

Query: Recorded Ratio IC50 of Cc1nn2c(=O)cc(N3CCOCC3)nc2n1Cc1cccc(Cl)c1Cl , please.
Reply: 6

Query: Fill blank: measured Ratio IC50 of the molecule Cc1c(Cn2c(C)nn3c(=O)cc(N4CCOCC4)nc23)cccc1C(F)(F)F is ____.
Reply: 6

Query: What measured Ratio IC50 goes with Cc1nn2c(=O)cc(N3CCOC(C)C3)nc2n1Cc1cccc(Cl)c1Cl (stereo in doubt; 6) ?
Reply: 20
